- protocolText: in vivo
- runConditions: NSG, mouse, ip
measureName: MTD at 3 treatment cycles (5 consecutive days of daily dosing each) (mg/kg)
One number for each entry, in mg/kg.

Task: Return reported MTD at 3 treatment cycles (5 consecutive days of daily dosing each); argument: O=c1[nH]cc(F)c(=O)[nH]1 [Compound 5-FU, 5-fluorouracil]
Result: 25

###

- Test system: BON cells
- protocolText: MTS viability assay, BON
- Format: cell-based
- runConditions: 72-hour drug incubation, Figure 1C
measureName: pIC50
One number for each entry, as −log10 of the molar value.

Task: Give recorded pIC50 with BON cells for the following molecule: `O=c1[nH]cc(F)c(=O)[nH]1`
Result: 5.15
